# Test system: RAW macrophages
# measurementNotes: NO production (Griess assay), LPS/IFNγ-activated RAW264.7 macrophages
# Format: cell-based, mouse
# measurementConditions: 10 μM, 24 hours, 1 μM GABA, LPS/IFNγ
Below: a set of entries, each annotated with reported Inhibition of NO production (%) RAW macrophages 10 μM.
Answer with a number only, understood to be in %.

// lookup Inhibition of NO production (%) RAW macrophages 10 μM for O=C(O)c1ncn2c1CN=C(c1ccccc1)c1cc(Br)ccc1-2
0

// lookup Inhibition of NO production (%) RAW macrophages 10 μM for C#Cc1ccc2c(c1)C(c1ccccc1F)=NC(C)c1c(C(=S)N(C)C)ncn1-2 (centres unmarked)
0

// lookup Inhibition of NO production (%) RAW macrophages 10 μM for C#Cc1ccc2c(c1)C(c1ccccc1)=NCC(=O)N2C
17

// lookup Inhibition of NO production (%) RAW macrophages 10 μM for CCOC(=O)c1ncn2c1CN=C(c1ccccn1)c1cc(C3CC3)ccc1-2
14

// lookup Inhibition of NO production (%) RAW macrophages 10 μM for CCOC(=O)c1ncn2c1[C@@H](C)N=C(c1ccccn1)c1cc(C#C[Si](C)(C)C)ccc1-2
11

###

# System: Mouse microglia
# measurementNotes: Cell viability (CellTiter-Glo), mouse microglia
# Type: cell-based
# measurementConditions: 50 μM, CellTiter-Glo
Label 1.0 when Cell viability (%) Mouse microglia 50 μM < 90%; otherwise 0.0.

Check out these entries, answers already filled in.
>  <molecule>
C#Cc1ccc2c(c1)C(c1ccccc1F)=NCc1c(-c3nc(C)no3)ncn1-2 [GL-III-23]

>  <classLabel>
0.0

$$$$
>  <molecule>
C[C@H]1N=C(c2ccccc2F)c2cc(Cl)ccc2-n2cnc(C(=O)O)c21 [GL-III-54]

>  <classLabel>
1.0

$$$$
>  <molecule>
C#Cc1ccc2c(c1)C(c1ccccc1)=NCc1c(C(=O)OCCCO)ncn1-2 [GL-I-48]

>  <classLabel>
1.0

$$$$

Say whether its Cell viability (%) Mouse microglia 50 μM is strictly beneath 90%. Entry: C#Cc1ccc2c(c1)C(c1ccccc1F)=N[C@H](C)c1c(C(=O)NC)ncn1-2 [MP-III-022]
1.0

Say whether its Cell viability (%) Mouse microglia 50 μM is strictly beneath 90%. Entry: C#Cc1ccc2c(c1)C(c1ccccn1)=N[C@H](C)c1c(-c3nc(CC)no3)ncn1-2 [GL-II-54]
0.0

###

# measurementTarget: MOR (μ opioid receptor) (Homo sapiens, UniProt P35372)
# Construct: expressed in transfected cells; host or cells: HEK293
# Sequence (P35372 whole entry, species assumed): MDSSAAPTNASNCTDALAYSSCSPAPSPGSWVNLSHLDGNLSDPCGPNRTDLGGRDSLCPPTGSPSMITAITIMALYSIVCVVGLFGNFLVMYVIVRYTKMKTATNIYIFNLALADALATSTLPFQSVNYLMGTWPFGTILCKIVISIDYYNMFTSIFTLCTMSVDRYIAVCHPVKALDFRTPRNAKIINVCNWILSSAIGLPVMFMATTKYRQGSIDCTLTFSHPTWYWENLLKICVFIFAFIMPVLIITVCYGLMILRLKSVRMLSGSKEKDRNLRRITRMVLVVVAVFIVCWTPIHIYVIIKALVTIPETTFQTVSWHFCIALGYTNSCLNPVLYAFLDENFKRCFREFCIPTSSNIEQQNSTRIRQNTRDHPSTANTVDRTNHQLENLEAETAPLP
# measurementNotes: MOR radioligand binding ([3H]-DAMGO, HEK293 cell homogenates)
measurementKind: Ki (µM)
Answer with a number only, understood to be in µM.

// lookup Ki for C#Cc1ccc2c(c1)C(c1ccccc1F)=N[C@@H](C)c1c(-c3nc(C(C)C)no3)ncn1-2
2.92

###

# measurementTarget: KOR (κ opioid receptor) (Homo sapiens, UniProt P41145)
# Construct: expressed in transfected cells; host or cells: HEK293 (stably transfected)
# Sequence (P41145 whole entry): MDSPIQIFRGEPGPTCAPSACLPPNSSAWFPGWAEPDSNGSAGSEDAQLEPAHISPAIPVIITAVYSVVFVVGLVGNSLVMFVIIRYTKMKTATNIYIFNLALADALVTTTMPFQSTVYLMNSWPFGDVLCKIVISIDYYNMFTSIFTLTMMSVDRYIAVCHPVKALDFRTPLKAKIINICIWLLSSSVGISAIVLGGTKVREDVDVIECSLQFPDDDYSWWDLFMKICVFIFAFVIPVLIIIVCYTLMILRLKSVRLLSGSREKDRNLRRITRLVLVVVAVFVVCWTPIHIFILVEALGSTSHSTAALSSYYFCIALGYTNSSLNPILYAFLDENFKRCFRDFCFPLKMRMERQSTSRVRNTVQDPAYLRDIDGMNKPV
# measurementNotes: KOR radioligand binding ([3H]-U69593, HEK293 cell homogenates)
# measurementConditions: Percent inhibition at 10,000 nM; [3H]-U69593
measurementKind: inhibition at 10 µM (%)
Answer with a number only, understood to be in %.

Check out these entries, answers already filled in.
>  <molecule>
C#Cc1ccc2c(c1)C(c1ccccn1)=N[C@H](C)c1c(-c3nc(CC)no3)ncn1-2

>  <measurementKind>
inhibition at 10 µM

>  <measureUnit>
%

>  <experimentalValue>
80

$$$$
>  <molecule>
C#Cc1ccc2c(c1)C(c1ccccn1)=N[C@H](C)c1c(C(=O)NC)ncn1-2

>  <measurementKind>
inhibition at 10 µM

>  <measureUnit>
%

>  <experimentalValue>
23

$$$$
>  <molecule>
C#Cc1ccc2c(c1)C(c1ccccn1)=NCc1c(C(=O)OC)ncn1-2

>  <measurementKind>
inhibition at 10 µM

>  <measureUnit>
%

>  <experimentalValue>
43

$$$$

Below: the item to evaluate.
inhibition at 10 µM of C#Cc1ccc2c(c1)C(c1ccccc1F)=N[C@H](C)c1c(-c3nc(C(C)C)no3)ncn1-2 on KOR (κ opioid receptor) (Homo sapiens, UniProt P41145)?
94

###

# measurementTarget: KOR (κ opioid receptor) (Homo sapiens, UniProt P41145)
# Construct: expressed in transfected cells; host or cells: HEK293 (stably transfected)
# measurementNotes: KOR radioligand binding ([3H]-U69593, HEK293 cell homogenates)
# measurementConditions: Percent inhibition at 10,000 nM; [3H]-U69593
measurementKind: inhibition at 10 µM (%)
Answer with a number only, understood to be in %.

>  <molecule>
Fc1ccccc1C1=NCc2c(-c3cnco3)ncn2-c2ccc(Br)cc21

>  <measurementTarget>
KOR (κ opioid receptor) (Homo sapiens, UniProt P41145)

>  <experimentalValue>
91

$$$$
>  <molecule>
Cc1noc(-c2ncn3c2[C@@H](C)N=C(c2ccccn2)c2cc(C4CC4)ccc2-3)n1

>  <measurementTarget>
KOR (κ opioid receptor) (Homo sapiens, UniProt P41145)

>  <experimentalValue>
60

$$$$
>  <molecule>
C#Cc1ccc2c(c1)C(c1ccccc1F)=N[C@H](C)c1c(C(=O)NC(C)C)ncn1-2

>  <measurementTarget>
KOR (κ opioid receptor) (Homo sapiens, UniProt P41145)

>  <experimentalValue>
63

$$$$
>  <molecule>
C#Cc1ccc2c(c1)C(c1ccccn1)=NCc1c(C(=O)OC(C)C)ncn1-2

>  <measurementTarget>
KOR (κ opioid receptor) (Homo sapiens, UniProt P41145)

>  <experimentalValue>
85

$$$$
>  <molecule>
COC(=O)c1ncn2c1[C@@H](C)N=C(c1ccccc1F)c1cc(Br)ccc1-2

>  <measurementTarget>
KOR (κ opioid receptor) (Homo sapiens, UniProt P41145)

>  <experimentalValue>
84

$$$$

// lookup inhibition at 10 µM for C[C@H]1N=C(c2ccccc2F)c2cc(Br)ccc2-n2cnc(C(=O)O)c21
0

// lookup inhibition at 10 µM for C#Cc1ccc2c(c1)C(c1ccccc1F)=N[C@@H](C)c1c(-c3cnco3)ncn1-2
74

// lookup inhibition at 10 µM for C#Cc1ccc2c(c1)C(c1ccccc1F)=N[C@H](C)c1c(C(=O)NCC)ncn1-2
86

###

Below: a set of entries, each annotated with reported Ki.
# measurementTarget: KOR (κ opioid receptor) (Homo sapiens, UniProt P41145)
# Construct: expressed in transfected cells; host or cells: HEK293 (stably transfected)
# measurementNotes: KOR radioligand binding ([3H]-U69593, HEK293 cell homogenates)
Please state the value followed by its unit.

>  <compound>
CCOC(=O)c1ncn2c1[C@H](C)N=C(c1ccccc1F)c1cc(Br)ccc1-2 [SH-I-048B]

>  <experimentalValue>
63 nM

$$$$
>  <compound>
C[C@H]1N=C(c2ccccc2F)c2cc(Br)ccc2-n2cnc(-c3cnco3)c21

>  <experimentalValue>
246 nM

$$$$
>  <compound>
CCOC(=O)c1ncn2c1[C@@H](C)N=C(c1ccccc1F)c1cc(C3CC3)ccc1-2

>  <experimentalValue>
174 nM

$$$$
>  <compound>
Cc1noc(-c2ncn3c2[C@@H](C)N=C(c2ccccc2F)c2cc(Br)ccc2-3)n1

>  <experimentalValue>
232 nM

$$$$
>  <compound>
Cc1noc(-c2ncn3c2[C@@H](C)N=C(c2ccccn2)c2cc(C4CC4)ccc2-3)n1

>  <experimentalValue>
2050 nM

$$$$
>  <compound>
CCOC(=O)c1ncn2c1[C@@H](C)N=C(c1ccccc1F)c1cc(Br)ccc1-2

>  <experimentalValue>
86 nM

$$$$
>  <compound>
C#Cc1ccc2c(c1)C(c1ccccc1F)=N[C@@H](C)c1c(-c3cnco3)ncn1-2

>  <experimentalValue>
451 nM

$$$$

Below: the item to evaluate.
// lookup Ki for C#Cc1ccc2c(c1)C(c1ccccc1F)=N[C@@H](C)c1c(-c3nc(C)no3)ncn1-2
222 nM

###

# measurementTarget: BZR (benzodiazepine site of GABAAR)
# measurementNotes: GABAAR/BZR binding, rat brain homogenate with 3H-flunitrazepam
# measurementConditions: rat brain homogenate, 3H-flunitrazepam
Below: a set of entries, each annotated with reported pKi.
Notebook: values listed as pKi are -log10 of the concentration (mol/L).

>  <molecule>
C#Cc1ccc2c(c1)C(c1ccccn1)=N[C@H](C)c1c(-c3nc(CC)no3)ncn1-2 [GL-II-54]

>  <measurementKind>
pKi

>  <experimentalValue>
5.69

$$$$
>  <molecule>
Brc1ccc2c(c1)C(c1ccccn1)=NCc1c(-c3cnco3)ncn1-2 [KRM-II-97]

>  <measurementKind>
pKi

>  <experimentalValue>
6.85

$$$$
>  <molecule>
C#Cc1ccc2c(c1)C(c1ccccn1)=N[C@H](C)c1c(C(=O)NC)ncn1-2 [GL-II-31]

>  <measurementKind>
pKi

>  <experimentalValue>
5.77

$$$$
>  <molecule>
C#Cc1ccc2c(c1)C(c1ccccc1F)=N[C@@H](C)c1c(C(=O)NC)ncn1-2 [MP-II-023]

>  <measurementKind>
pKi

>  <experimentalValue>
7.43

$$$$
>  <molecule>
C#Cc1ccc2c(c1)C(c1ccccc1F)=N[C@@H](C)c1c(C(=O)SCC)ncn1-2 [GL-I-77]

>  <measurementKind>
pKi

>  <experimentalValue>
6.91

$$$$

pKi of CCOC(=O)c1ncn2c1[C@@H](C)N=C(c1ccccc1F)c1cc(Br)ccc1-2 [SH-I-047] on BZR (benzodiazepine site of GABAAR)?
6.62

pKi of C#Cc1ccc2c(c1)C(c1ccccc1F)=N[C@@H](C)c1c(-c3nc(C(C)C)no3)ncn1-2 [GL-I-81] on BZR (benzodiazepine site of GABAAR)?
6.08

pKi of C#Cc1ccc2c(c1)C(c1ccccn1)=N[C@H](C)c1c(C(=O)O)ncn1-2 [GL-II-30] on BZR (benzodiazepine site of GABAAR)?
6.37

pKi of C#Cc1ccc2c(c1)C(c1ccccc1F)=N[C@@H](C)c1c(C(=O)OCC(F)(F)F)ncn1-2 [GL-I-36] on BZR (benzodiazepine site of GABAAR)?
6.38

pKi of C#Cc1ccc2c(c1)C(c1ccccc1F)=N[C@@H](C)c1c(C(=O)NCC)ncn1-2 [GL-I-43] on BZR (benzodiazepine site of GABAAR)?
7.36

pKi of C#Cc1ccc2c(c1)C(c1ccccc1F)=N[C@@H](C)c1c(-c3nc(CC)no3)ncn1-2 [GL-I-66] on BZR (benzodiazepine site of GABAAR)?
6.18

pKi of C[C@@H]1N=C(c2ccccc2F)c2cc(Br)ccc2-n2cnc(-c3cnco3)c21 [GL-III-76] on BZR (benzodiazepine site of GABAAR)?
6.92

pKi of C#Cc1ccc2c(c1)C(c1ccccc1F)=N[C@@H](C)c1c(C(=O)OC(C)C)ncn1-2 [GL-I-31] on BZR (benzodiazepine site of GABAAR)?
6.61

pKi of C#Cc1ccc2c(c1)C(c1ccccn1)=NCc1c(-c3cnco3)ncn1-2 [KRM-III-67] on BZR (benzodiazepine site of GABAAR)?
6.84

pKi of Cc1ncoc1-c1ncn2c1CN=C(c1ccccc1)c1cc(Br)ccc1-2 [KRM-III-66] on BZR (benzodiazepine site of GABAAR)?
7.31

pKi of Brc1ccc2c(c1)C(c1ccccc1)=NCc1c(-c3cnco3)ncn1-2 [KRM-II-73] on BZR (benzodiazepine site of GABAAR)?
7.35

pKi of C#Cc1ccc2c(c1)C(c1ccccn1)=NCc1c(-c3ocnc3C)ncn1-2 [KRM-III-79] on BZR (benzodiazepine site of GABAAR)?
6.51

pKi of C#Cc1ccc2c(c1)C(c1ccccn1)=NCc1c(-c3cnco3)ncn1-2 [KRM-II-81] on BZR (benzodiazepine site of GABAAR)?
6.53
